Data provenance is patent US12703739.

target: Gn of RVFV-ZH501 (Rift Valley Fever Virus strain ZH501); test: cell-based or functional assay
# IC50 (ng/ml), neutralization of RVFV-ZH501 per record follows
The figure you give is taken to be in ng/mL; do not add the unit.

{"binder": "RVFV-436 (antibody, V domains shown) VH: QVQLHESGPGLVKPSETLSLTCGVSGYTISSDYYWGWIRQPPGKGLEWIGSIYQNGHTYYNPSLKSRVTISVDTSKNQFSLELSSVTAADTAVYYCARRGDCGADCYHFDYWGRGTAVTVSS VL: SYEVTQPLSVSVSPGQTASITCSGEKLENKYVSWYQQKPGQSPVLVMYQDFKRPSGIPERFSGSNSGNTATLTISGTQAMDEADYYCQAWDRSTFYVFGTGTKVTVVG", "value": 4.57}
{"binder": "RVFV-381 (antibody, V domains shown) VH: QEQLVESGGGVVQPGRSLRLSCAASGFTLRGYGIYWVRQAPGKGLEWVAVISHDGKNESYTDSVKGRFSISRDKSKNTVFLQMNSLTTQDTSVYYCARWTEGSEEFYYHGLDVWGQGTTVTVSP VL: SYELTQPPSVSVSPGQTARITCSGHLLPKQYAYWYQQKPGQAPTLVIYADYNRASGIPERFSGASSGTTVTLTITGVKAEDQADYYCQSIDNRFHYPMIFGGGTKLTVL", "value": 10000}
{"binder": "RVFV-379 (antibody, V domains shown) VH: QVQLQESGPGLVKPSQTLSLTCTVSGDSISGGDYYWSWIRRPAGEGLEWIGRVHTTGSTDYNPSLRTRVTISIDTSKNHFFLKMTSVTAADTAVYYCAREGDYSAWFDPWGQGALVTVSS VL: DIQMTQSPSSLSASIGDRVTITCRASQHIESFLNWYQQKPGKAPKLLIYIASTLQGGVPSRFSGRGFGTDFTLTINSLQPEDFATYYCQQSYTISPITFGQGTRLEIK", "value": 4.57}
{"binder": "RVFV-426 (antibody, V domains shown) VH: QVQLQESGPGLLKPSQTLSLTCGVSGDSITSTGDSWTWIRQPPGKGLEWIGYIYYSGSAYYNPSLKSRVTISVDTSKNQFSLRLRSVTAADTAVYYCARALEYGAGSWAAAFWGQGILVTVSS VL: SYEVTQPPSVSVSPGQTASITCSGDKLVERYVSWYQQKPGQSPLLVIYHDIKRPSGIPERFSGSNSGNTATLTISGTQPMDEADYYCQAWDSSTVLFGGGTKLTVL", "value": 41}
{"binder": "RVFV-405 (antibody, V domains shown) VH: EVQLVESGGGLVQPGGSLRLSCAASGFTFSSFEMNWVRQAPGKGLEWVSYISRSGTTKHYADSVKGRFAISRDDAKNSLYLQMNSLRAEDTAVYYCARGGARVLQAPLDYWGQGTLVTVSS VL: SYELTQPPSVSVAPGETARITCGGTNIGNKSVRWYQQKPGQAPVLVIYYDNDRPSGIPERFSGSNSGNTATLTISRVEAGDEADYYCQVWDNSSDHAVFGGGTKLTVL", "value": 30000}
{"binder": "RVFV-401 (antibody, V domains shown) VH: QITFKESGPTLVKPTQTLTLTCTFSGFSLSTSGVGVGWIRQPPGKALEWLALLYWNDDKRYTPSLRSRLTITKDTSKNQVVLTMTDMDPVDTATYYCARKPRDDFLRLTMMGGGDYFDYWGQGTLVTVSS VL: SYELTQPPSVSVSPGQTARITCSGDALPDQYAYWYQQKPGQAPVLVLYKDNERPSGIPERFSGSTSGTTVTLTISGVQAEDEADYYCQSADTSTAYHVIFGGGTKLTVL", "value": 370}

Entry RVFV-296 (antibody, V domains shown) VH: QVQLVQSGSELKKSGASVKVSCRASGYTFTTYVMNWVRQAPGQGLEWMGWINTNTGNPTYAQGFTGRFVFSLDTSVSTAYLQINSLKAEDTAVYYCAREYNSFDYWGQGTLVTVSS VL: QSVLTQPPSVSGAPGQRVTISCTGSSSNIGAGYDVHWYQQLPGTAPKLLIYDNNNRPSGVPDRFSGSRSGTSTSLAITGLQAEDEADYYCQSYDFRLSGSVFGGGTKVTVL — recorded IC50 (ng/ml), neutralization of RVFV-ZH501 = 120
